Tested on: Nrf2-dependent ARE transcriptional activity
Assay: ARE-luc luciferase reporter gene assay in HepG2 cells (qHTS)
Assay type: cell-based
Settings: primary qHTS screening, 0.59 nM to 92 µM
REPORTED_METRIC: activity in ARE-luc assay (words)

Some solved cases for reference:
[[record]]
molecule = "CCOCN(C(=O)CCl)c1c(C)cccc1CC [Acetochlor]"
reported_metric = "activity in ARE-luc assay (words)"
test_value = "high-quality active"

[[record]]
molecule = "Oc1ccc(/C=C/c2cc(O)cc(O)c2)cc1 [resveratrol]"
reported_metric = "activity in ARE-luc assay (words)"
test_value = "active"

[[record]]
molecule = "COc1cc(/C=C/C(=O)CC(=O)/C=C/c2ccc(O)c(OC)c2)ccc1O [Curcumin]"
reported_metric = "activity in ARE-luc assay (words)"
test_value = "high-quality active"

[[record]]
molecule = "CC(C)CC(C)Nc1ccc(Nc2ccccc2)cc1 (stereo not shown)"
reported_metric = "activity in ARE-luc assay (words)"
test_value = "active"

[[record]]
molecule = "Clc1ccc(C(c2ccc(Cl)cc2)C(Cl)Cl)cc1 [Rhothane (TDE), Tetrachlorodiphenylethane]"
reported_metric = "activity in ARE-luc assay (words)"
test_value = "inactive"


Would you kindly share the measured activity in ARE-luc assay (words) for C[C@H](CCC(=O)O)[C@H]1CC[C@H]2[C@@H]3CC[C@@H]4C[C@H](O)CC[C@]4(C)[C@H]3CC[C@]12C [Lithocholic acid] ?
inactive

Would you kindly share the measured activity in ARE-luc assay (words) for C[S@@+]([O-])CCCCN=C=S [L-sulforaphane] ?
active

###

System: Nrf2-dependent ARE transcriptional activity
Assay: ARE-luc luciferase reporter gene assay in HepG2 cells (qHTS)
Assay type: cell-based
Conditions: confirmation/follow-up studies, HepG2, 16 hr exposure, mean ± SD
REPORTED_METRIC: ARE-luc EC50

[[record]]
compound = "c1ccc2ncccc2c1 [Quinoline]"
test_value = "inactive"

[[record]]
compound = "Nc1nc2ccc([N+](=O)[O-])cc2s1 [2-Amino-6-nitrobenzothiazole]"
test_value = "inactive"

[[record]]
compound = "O=C(O)CCCc1ccc(N(CCCl)CCCl)cc1 [Chlorambucil, reference compound]"
test_value = "inactive"


###

Test system: antioxidant response element (ARE) signaling pathway
Test: ARE-bla β-lactamase reporter gene assay in HepG2 cells (qHTS)
Format: cell-based, human
Conditions: Homo sapiens, HepG2, 16 h, read-out: ARE-bla EC50
The reader will find reported EC50 values listed item by item below.
Express the result in µM but write the number alone.

Some solved cases for reference:
[[record]]
molecule = "Oc1cccc2cccnc12 [8-Hydroxyquinoline]"
reported_metric = "EC50"
test_value = 16.1

[[record]]
molecule = "CC(C)Nc1ccc(Nc2ccccc2)cc1"
reported_metric = "EC50"
test_value = 13.1

[[record]]
molecule = "CN(C)c1ccc(N=O)cc1"
reported_metric = "EC50"
test_value = 9.9


Turning now to a further record.
Would you kindly share the measured EC50 for `Nc1ccccc1O` ?
6.8

###

The reader will find reported pEC50 values listed item by item below.
Tested on: antioxidant response element (ARE) signaling pathway
Assay: ARE-bla β-lactamase reporter gene assay in HepG2 cells (qHTS)
Format: cell-based, human
Details: confirmation/follow-up studies, HepG2, 16 hr exposure, mean ± SD; read-out: ARE-bla EC50
Convention used: pEC50 is expressed as -log10 of the molar concentration.

[[record]]
molecule = "O=C1c2ccccc2C(=O)C1c1ccc2ccccc2n1"
test_value = 6.15

[[record]]
molecule = "CN(C)C(=S)SSC(=S)N(C)C [Tetramethylthiuram disulfide]"
test_value = 4.76

[[record]]
molecule = "[Cl][In]([Cl])[Cl] [Indium trichloride]"
test_value = 4.83

[[record]]
molecule = "Nc1ccccc1N"
test_value = 5.14


Would you kindly share the measured pEC50 for `Nc1ccc(N)c(Cl)c1.O=S(=O)(O)O` ?
4.77

Would you kindly share the measured pEC50 for `CCN(CC)c1ccc(N)cc1` ?
4.73

Would you kindly share the measured pEC50 for `Clc1ccc(C(c2ccc(Cl)cc2)C(Cl)Cl)cc1` ?
4.79
